Entry source: PubChem BioAssay AID1963864

Test system: KRAS PDC multicell spheroid viability
Test: Anticancer human tumor 521955-158-R6-J3-PDC patient-derived pancreatic carcinoma cell line growth inhibition [KRAS2]
Conditions: second compound 3.16 µM; first compound 0.1 µM; active compounds read low
The following compounds are shown together with reported viability, T/C values.
Provide only the numeric value, understood in %.

Examples from the recorded data:
- CN(C)C/C=C/C(=O)Nc1cc2c(Nc3ccc(F)c(Cl)c3)ncnc2cc1O[C@H]1CCOC1 + CC1OCC2(CCN(c3cnc(Sc4ccnc(N)c4Cl)c(N)n3)CC2)C1N: 34.8
- O=C(c1cc(Cc2n[nH]c(=O)c3ccccc23)ccc1F)N1CCN(C(=O)C2CC2)CC1 + C=CC(=O)N1CCN(c2nc(=O)n(-c3c(C)ccnc3C(C)C)c3nc(-c4c(O)cccc4F)c(F)cc23)C(C)C1: 105
- CC1COCCN1c1cc(-c2ccnn2C)c2ccnc(-c3ccn[nH]3)c2n1 (stereo unspecified) + C=CC(=O)N1CCN(c2nc(=O)n(-c3c(C)ccnc3C(C)C)c3nc(-c4c(O)cccc4F)c(F)cc23)C(C)C1: 88.4
- CC1(C)CCC(CN2CCN(c3ccc(C(=O)NS(=O)(=O)c4ccc(NCC5CCOCC5)c([N+](=O)[O-])c4)c(Oc4cnc5[nH]ccc5c4)c3)CC2)=C(c2ccc(Cl)cc2)C1 + C=CC(=O)N1CCN(c2nc(OCC3CCCN3C)nc3c2CCN(c2cccc4cccc(C)c24)C3)CC1CC#N: 48.4
- COc1cc(Nc2ncc3c(n2)-c2ccc(Cl)cc2C(c2c(F)cccc2OC)=NC3)ccc1C(=O)O + C=CC(=O)N1CCN(c2nc(=O)n(-c3c(C)ccnc3C(C)C)c3nc(-c4c(O)cccc4F)c(F)cc23)C(C)C1: 89.9

Item: CCNC(=O)CC1N=C(c2ccc(Cl)cc2)c2cc(OC)ccc2-n2c(C)nnc21 (stereo unspecified) + CC1OCC2(CCN(c3cnc(Sc4ccnc(N)c4Cl)c(N)n3)CC2)C1N | viability, T/C: 103

----------
Tested on: KRAS PDC multicell spheroid viability
Assay: Anticancer human tumor 521955-158-R6-J3-PDC cell line growth inhibition [KRAS2];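 further: drug exposure lasted seven days; 100% = DMSO vehicle wells and lower means fewer viable cells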
Conditions: second compound 1 µM; first compound 1 µM; active compounds read low
Listed molecules paired with reported viability, T/C

Here is how some molecules turned out for viability, T/C.
• O=C(c1cc(Cc2n[nH]c(=O)c3ccccc23)ccc1F)N1CCN(C(=O)C2CC2)CC1 + C=CC(=O)N1CCN(c2nc(=O)n(-c3c(C)ccnc3C(C)C)c3nc(-c4c(O)cccc4F)c(F)cc23)C(C)C1 = 99.3%
• CC1(C)CCC(CN2CCN(c3ccc(C(=O)NS(=O)(=O)c4ccc(NCC5CCOCC5)c([N+](=O)[O-])c4)c(Oc4cnc5[nH]ccc5c4)c3)CC2)=C(c2ccc(Cl)cc2)C1 + CNCc1ccccc1-c1csc(C(C)Nc2nc(C)nc3cc(OC)c(OC)cc23)c1 = 82.6%
• O=C(c1cc(Cc2n[nH]c(=O)c3ccccc23)ccc1F)N1CCN(C(=O)C2CC2)CC1 + CNCc1ccccc1-c1csc(C(C)Nc2nc(C)nc3cc(OC)c(OC)cc23)c1 = 55%
• COC(=O)c1ccc2c(C(=Nc3ccc(N(C)C(=O)CN4CCN(C)CC4)cc3)c3ccccc3)c(O)[nH]c2c1 + CNCc1ccccc1-c1csc(C(C)Nc2nc(C)nc3cc(OC)c(OC)cc23)c1 = 110%

Now for a further molecule.
The observed viability, T/C for CCN1CCN(Cc2ccc(Nc3ncc(F)c(-c4cc(F)c5nc(C)n(C(C)C)c5c4)n3)nc2)CC1 + C=CC(=O)N1CCN(c2nc(=O)n(-c3c(C)ccnc3C(C)C)c3nc(-c4c(O)cccc4F)c(F)cc23)C(C)C1 when tested with KRAS PDC multicell spheroid viability stands at 125%

----------
Tested on: KRAS PDC multicell spheroid viability
Assay: Anticancer human tumor 521955-158-R6-J3-PDC cell line growth inhibition [KRAS2];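 further: drug exposure lasted seven days; 100% = DMSO vehicle wells and lower means fewer viable cells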
Details: second compound 0.1 µM; first compound 1 µM; active compounds read low
ATTRIBUTE_MEASURED: viability, T/C (%)
Could you give me the number in %? Just the number is fine.

• CCNC(=O)CC1N=C(c2ccc(Cl)cc2)c2cc(OC)ccc2-n2c(C)nnc21 (centres undefined) + CC1OCC2(CCN(c3cnc(Sc4ccnc(N)c4Cl)c(N)n3)CC2)C1N = 73.5

Query CC1COCCN1c1cc(-c2ccnn2C)c2ccnc(-c3ccn[nH]3)c2n1 (centres undefined) + COc1cc2nc(C)nc(NC(C)c3cc(N)cc(C(F)(F)F)c3)c2cc1OC1CCOC1 yields viability, T/C of 65.5

Kindly note the recorded viability, T/C for CC1COCCN1c1cc(-c2ccnn2C)c2ccnc(-c3ccn[nH]3)c2n1 (centres undefined) + C=CC(=O)N1CCN(c2nc(=O)n(-c3c(C)ccnc3C(C)C)c3nc(-c4c(O)cccc4F)c(F)cc23)C(C)C1 , which is 73

Reported viability, T/C of COc1cc2nccc(Oc3ccc(NC(=O)C4(C(=O)Nc5ccc(F)cc5)CC4)cc3)c2cc1OC + C=CC(=O)N1CCN(c2nc(OCC3CCCN3C)nc3c2CCN(c2cccc4cccc(C)c24)C3)CC1CC#N : 116

# viability, T/C of CC1OCC2(CCN(c3cnc(Sc4ccnc(N)c4Cl)c(N)n3)CC2)C1N (centres undefined) + C=CC(=O)N1CCN(c2nc(=O)n(-c3c(C)ccnc3C(C)C)c3nc(-c4c(O)cccc4F)c(F)cc23)C(C)C1 = 92

So, O=C(c1cc(Cc2n[nH]c(=O)c3ccccc23)ccc1F)N1CCN(C(=O)C2CC2)CC1 + C=CC(=O)N1CCN(c2nc(OCC3CCCN3C)nc3c2CCN(c2cccc4cccc(C)c24)C3)CC1CC#N ? Its viability, T/C was 83.5

Value of measured viability, T/C for the entry CCN1CCN(Cc2ccc(Nc3ncc(F)c(-c4cc(F)c5nc(C)n(C(C)C)c5c4)n3)nc2)CC1 + CC1OCC2(CCN(c3cnc(Sc4ccnc(N)c4Cl)c(N)n3)CC2)C1N : 88.2

// field: viability, T/C; key: CC1(C)CCC(CN2CCN(c3ccc(C(=O)NS(=O)(=O)c4ccc(NCC5CCOCC5)c([N+](=O)[O-])c4)c(Oc4cnc5[nH]ccc5c4)c3)CC2)=C(c2ccc(Cl)cc2)C1 + C=CC(=O)N1CCN(c2nc(=O)n(-c3c(C)ccnc3C(C)C)c3nc(-c4c(O)cccc4F)c(F)cc23)C(C)C1 ; value = 93.2

The compound listed as COc1cc2nccc(Oc3ccc(NC(=O)C4(C(=O)Nc5ccc(F)cc5)CC4)cc3)c2cc1OC + CNCc1ccccc1-c1csc(C(C)Nc2nc(C)nc3cc(OC)c(OC)cc23)c1 shows viability, T/C equal to 108

----------
The entries below come with measured viability, T/C values attached.
Tested on: KRAS PDC multicell spheroid viability
Test: Anticancer human tumor 521955-158-R6-J3-PDC cell line growth inhibition [KRAS2];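 further: drug exposure lasted seven days; 100% = DMSO vehicle wells and lower means fewer viable cells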
Settings: second compound 3.16 µM; first compound 10 µM; active compounds read low
Numbers only; they are read as %.

• COc1cc(Nc2ncc3c(n2)-c2ccc(Cl)cc2C(c2c(F)cccc2OC)=NC3)ccc1C(=O)O + C=CC(=O)N1CCN(c2nc(OCC3CCCN3C)nc3c2CCN(c2cccc4cccc(C)c24)C3)CC1CC#N = 29.2
• COc1cc2nccc(Oc3ccc(NC(=O)C4(C(=O)Nc5ccc(F)cc5)CC4)cc3)c2cc1OC + COc1cc2nc(C)nc(NC(C)c3cc(N)cc(C(F)(F)F)c3)c2cc1OC1CCOC1 = 53.6
• CC(C)NCC(C(=O)N1CCN(c2ncnc3c2C(C)CC3O)CC1)c1ccc(Cl)cc1 (configuration not stated) + CNCc1ccccc1-c1csc(C(C)Nc2nc(C)nc3cc(OC)c(OC)cc23)c1 = 0.86
• COc1cc(Nc2ncc3c(n2)-c2ccc(Cl)cc2C(c2c(F)cccc2OC)=NC3)ccc1C(=O)O + COc1cc2nc(C)nc(NC(C)c3cc(N)cc(C(F)(F)F)c3)c2cc1OC1CCOC1 = 71.2
• CC1(C)CCC(CN2CCN(c3ccc(C(=O)NS(=O)(=O)c4ccc(NCC5CCOCC5)c([N+](=O)[O-])c4)c(Oc4cnc5[nH]ccc5c4)c3)CC2)=C(c2ccc(Cl)cc2)C1 + COc1cc2nc(C)nc(NC(C)c3cc(N)cc(C(F)(F)F)c3)c2cc1OC1CCOC1 = 30.3
• CCNC(=O)CC1N=C(c2ccc(Cl)cc2)c2cc(OC)ccc2-n2c(C)nnc21 (configuration not stated) + CNCc1ccccc1-c1csc(C(C)Nc2nc(C)nc3cc(OC)c(OC)cc23)c1 = 0.8

Field: next compound
Entry CC1(C)CCC(CN2CCN(c3ccc(C(=O)NS(=O)(=O)c4ccc(NCC5CCOCC5)c([N+](=O)[O-])c4)c(Oc4cnc5[nH]ccc5c4)c3)CC2)=C(c2ccc(Cl)cc2)C1 + CNCc1ccccc1-c1csc(C(C)Nc2nc(C)nc3cc(OC)c(OC)cc23)c1 , viability, T/C reported as 3.03
